system: UACC-257 melanoma; assay: NCI tumour cell line growth inhibition, 48 h
Where a SMILES comes first, the peptide text is derived from it.
endpoint: TGI

1) CC(=O)NC1C(OCc2ccccc2)OC(CO)C(O)C1OCC(=O)N[C@@H](C)C(=O)N[C@H](CCC(=O)NCCCCNc1c2ccccc2nc2cccc([N+](=O)[O-])c12)C(N)=O (some centres not stated): 5.36 µM
2) O=c1c2ccccc2c2ccccc2c(=O)n1-c1cc2c3ccccc3ccc2c2ccccc12: > 100 µM
3) CC(C)(C)N1CCC1C(N)=O (configuration not stated): > 100 µM
4) CCC(=O)Nc1ccc(N2C(=O)/C(=C/c3ccc(O)c(OC)c3)N=C2c2ccccc2)cc1: 71.5 µM
5) c1ccc(Cc2nc3ccc(Nc4ncnc5ccccc45)cc3[nH]2)cc1: > 25 µM
6) Cc1c(C#N)cccc1-c1cc(-c2cn(Cc3cccc(C(C)(C)O)n3)nn2)nc(N)n1: > 100 µM
7) CC(=O)CCCCCCCCCCCC[C@@H]1CC[C@H](C)[C@H](O)N1: > 100 µM
8) O=C1NC(=S)NC(=O)C1=Cc1cc2c(cc1[N+](=O)[O-])OCO2: > 100 µM
9) Cc1ccc2c(c1)nc(C(=O)c1ccco1)c(C(F)(F)F)[n+]2[O-]: > 100 µM
10) COC(=O)NC(Nc1ccc(C)cc1)(C(F)(F)F)C(F)(F)F: > 100 µM
11) O=Cc1c(-c2cc(O)ccc2O)nc2sccn12: 95.8 µM
12) Clc1ccc(Cl)c2[s+]snc12: > 100 µM
13) CCOC(=O)c1nc2ccccc2nc1Nc1ccc(F)cc1: > 100 µM
14) CC(C)N(C(=O)C12C3C4C5(C#N)C3C1(I)C5C42I)C(C)C (configuration not stated): > 100 µM
15) O=C1/C(=C/C=C/c2ccccc2)CCC1CNc1ccc(Br)cc1 (configuration not stated): > 100 µM
16) CC(C)CCCC(C)[C@H]1CC[C@H]2NCCCC[C@]12C (some centres not stated): 9.37 µM
17) COCCn1cc(-c2csc(-c3c[nH]c4ccccc34)n2)c2cccnc21: > 100 µM
18) CCCCNC(=S)Nc1nc(C(=O)NNC(=S)NCc2ccccc2)cs1: 83.9 µM
19) Cc1cc2nc3c(N)nn(CCN(C)C)c3nc2cc1C: > 100 µM
20) COc1ccc(C2C3=CONC3CC3CCCCC32)cc1 (configuration not stated): > 100 µM
21) Cc1c(Cl)c(=O)oc2cc(OCC(O)COC(C)C)ccc12 (configuration not stated): > 100 µM
22) Cc1cccc(-c2nc3c(C(=O)NCCN(C)C)cccc3[nH]2)c1: 3.08 µM
23) CC(=O)O[C@H]1C(=O)[C@@]2(C)C(C(OC(=O)c3ccccc3)[C@]3(O)CC(OC(=O)[C@H](OC(=O)CCC(=O)O)C(NC(=O)c4ccccc4)c4ccccc4)C(C)=C1C3(C)C)C1(OC(C)=O)COC1C[C@@H]2OC(=O)CCC(=O)O (some centres not stated): > 100 µM
24) O=C(O)c1ccc2c(c1)Cc1cc([N+](=O)[O-])ccc1-2: > 100 µM
25) COCCN(C(=O)c1ccccc1)C1CCC(=O)c2[nH]c3ccccc3c21 (configuration not stated): > 66.7 µM
26) COc1cccc(OC/C(N=Cc2ccncc2)=N/NC(=O)c2ccncc2)c1: > 100 µM
27) C=C(C)[C@@H]1CC[C@]2(C(=O)OC3OC(COC4OC(CO)C(OC5OC(C)C(O)C(O)C5O)C(O)C4O)C(O)C(O)C3O)CC[C@]3(C)[C@H](CC[C@@H]4[C@@]5(C)CC[C@H](O)[C@@](C)(CO)[C@@H]5CC[C@]43C)[C@@H]12 (some centres not stated): > 10 µM
28) CC1=C(/C=C/C(C)=C\C=C\C(C)=C\C(=O)Nc2ccc3c(c2)OCO3)C(C)(C)CCC1: > 100 µM
29) COC(C/C=C\C=C\CC/C=C/CC(C)/C=C/C(=C\C(=O)O)CC(=O)O)/C(C)=C\C=C(/C)C(=O)O (configuration not stated): > 100 µM
30) COc1ccc(C=C2C(=O)OC(C)(C)OC2=O)cc1OC: > 100 µM
31) O=C1/C(=C/c2cccs2)N=C(c2ccccc2)N1c1nc2ccccc2s1: > 100 µM
32) C[C@]12CCC3[C@@H](C[C@@H]4SC(Nc5ccccc5)=N[C@@]45CC(=O)CC[C@]35C)[C@@H]1CCC2=O (some centres not stated): 94.5 µM
33) CC(=O)OC[C@H]1O[C@@H](n2ccc(=O)[nH]c2=O)[C@H](OC(C)=O)[C@@H]1OC(C)=O: > 100 µM
34) CCC(C)C(NC(=O)C1CCCN1)C(=O)NC(C(=O)NCC(=O)NC(CC(N)=O)C(=O)NC(CC(C)C)C(=O)NC(CC(C)C)C(=O)NC(CCCCN)C(N)=O)C(C)C (configuration not stated) (H-PIVGNLLK-NH2; configuration not given here): > 75 µM
35) C/C(=C\COP(=O)(O)OP(=O)(O)O)CC/C=C(\C)CNc1ccccc1: > 50 µM
36) CCCC[C@H]1C(=O)O[C@H](C)[C@H](NC(=O)c2cccc(NC=O)c2O)C(=O)O[C@@H](C)[C@@H]1OC(=O)CC(C)C: 69.6 µM
37) COc1ccc2[nH]c(-c3ccccn3)cc(=O)c2c1: > 100 µM

The reported numbers originate from PubChem BioAssay (NCI).
